- assay: In vitro skin flux, Franz diffusion cell, hairless mouse skin
- measurement-setup: non-volatile solvent system: Propylene glycol; excess drug; hairless mouse skin; linear region 4-8 hours; mean ± SD of three
result-type: Skin Flux (μg/cm^2/h)
Express your answer in μg/cm^2/h, writing the number without its unit.

-- ask Return reported Skin Flux; argument: O=C(O)Cc1ccccc1Nc1c(Cl)cccc1Cl [diclofenac acid]
-- reply 5

-- ask How about CC(C)Cn1cnc2c(N)nc3ccccc3c21 ?
-- reply 0.05

-- ask How about CC(C(=O)O)c1cccc(C(=O)c2ccccc2)c1 (stereo not shown) ?
-- reply 90

-- ask How about O=C(O)Cc1ccccc1Nc1c(Cl)cccc1Cl [diclofenac sodium] ?
-- reply 30

====

- assay: In vitro skin flux, Franz diffusion cell, hairless mouse skin
- measurement-setup: non-volatile solvent system: Span 20 (sorbitan laurate); excess drug; hairless mouse skin; linear region 4-8 hours; mean ± SD of three
Lab note - cut at 20 μg/cm^2/h for Skin Flux: true (1) if strictly below, false (0) if not.

-- ask Identify whether the compound CC(C(=O)O)c1cccc(C(=O)c2ccccc2)c1 (centres unmarked) [Ketoprofen, ketoprofen] records Skin Flux below 20 μg/cm^2/h.
-- reply true (1)

-- ask How about O=C(O)Cc1ccccc1Nc1c(Cl)cccc1Cl [diclofenac sodium] ?
-- reply false (0)

-- ask How about CCCN1CCCC[C@H]1C(=O)Nc1c(C)cccc1C [Ropivacaine, ropivacaine] ?
-- reply false (0)

Others:
-- ask Identify whether the compound CC(C)Cn1cnc2c(N)nc3ccccc3c21 [Imiquimod, imiquimod] records Skin Flux below 20 μg/cm^2/h.
-- reply true (1)

-- ask How about O=C(O)Cc1ccccc1Nc1c(Cl)cccc1Cl [diclofenac acid] ?
-- reply true (1)

====

- assay: In vitro skin flux, Franz diffusion cell, hairless mouse skin
- measurement-setup: non-volatile solvent system: Glycerol; excess drug; hairless mouse skin; linear region 4-8 hours; mean ± SD of three
result-type: Skin Flux (μg/cm^2/h)
Express your answer in μg/cm^2/h, writing the number without its unit.

See these solved cases before continuing.
-- ask Return reported Skin Flux; argument: CC(C(=O)O)c1cccc(C(=O)c2ccccc2)c1 (centres unmarked)
-- reply 2

-- ask How about CCCN1CCCC[C@H]1C(=O)Nc1c(C)cccc1C ?
-- reply 1.2

-- ask How about O=C(O)Cc1ccccc1Nc1c(Cl)cccc1Cl [diclofenac acid] ?
-- reply 0

-- ask How about CC(C)Cn1cnc2c(N)nc3ccccc3c21 ?
-- reply 0

Consider the additional compound presented here.
-- ask Return reported Skin Flux; argument: O=C(O)Cc1ccccc1Nc1c(Cl)cccc1Cl [diclofenac sodium]
-- reply 1.7
